Tested on: DLD1
Test: cell viability (CellTiter-Glo) relative to plate median (fraction of plate median); higher = more viable cells
Settings: 5 µM; treatment time 24 h; reporter: 7TFP
measured_parameter: cell viability

| molecule | measured_parameter | result_value |
| --- | --- | --- |
| CCCC(C)C1(CC)C(=O)NC(=S)NC1=O (centres undefined) | cell viability | 1 |
| C/C=C(/C)C(=O)O[C@H]1CC[C@@]2(C)[C@@H]3CC[C@H]4[C@]5(O)C[C@H](O)[C@@]6(O)[C@@H](CN7C[C@@H](C)CC[C@H]7[C@@]6(C)O)[C@]5(O)C[C@]42O[C@]13O | cell viability | 0.981 |
| Cc1ccc(C[N+](C)(C)C)o1 | cell viability | 1 |
| C/C=C(/C)C(=O)O[C@H]1CC[C@@]2(C)[C@@H]3CC[C@H]4[C@]5(O)C[C@H](O)[C@@]6(O)[C@@H](CN7C[C@@H](C)CC[C@H]7[C@@]6(C)O)[C@]5(O)C[C@@]42O[C@]13O | cell viability | 0.994 |
| CC[C@H]1CN2CCc3cc(OC)c(OC)cc3[C@@H]2C[C@@H]1C[C@H]1NCCc2cc(OC)c(OC)cc21 | cell viability | 0.984 |
| COc1ccc2c(c1O)-c1c(OC)c(OC)cc3c1[C@H](C2)N(C)CC3 | cell viability | 0.993 |
| O=C1NC(=O)C(=O)C(=O)N1 | cell viability | 1.01 |
| COP(=S)(OC)SCn1nnc2ccccc2c1=O | cell viability | 0.983 |
| C[C@H]1O[C@H](O[C@H]2[C@H](O)[C@@H](O)[C@@H](O)[C@H](O)[C@@H]2O)[C@@H](N)C[C@@H]1NC(=N)C(=O)O | cell viability | 0.989 |
| NCC(=O)c1ccccc1 | cell viability | 0.981 |
| CCC(=O)O[C@H]1CC[C@H]2[C@@H]3CCC4=CC(=O)CC[C@]4(C)[C@H]3CC[C@]12C | cell viability | 1.02 |
| O=C([O-])c1ccccc1-c1c2cc(Br)c(=O)cc-2oc2[c]([Hg+])c([O-])c(Br)cc12.[Na+].[Na+].[OH-] | cell viability | 0.955 |
| C=C[C@H]1CN2CC[C@H]1C[C@@H]2[C@@H](O)c1ccnc2ccccc12 | cell viability | 1.02 |
| CC(=O)CC1CCCCN1 (centres undefined) | cell viability | 0.961 |
| COc1cccc(C2(O)CCCCC2CN(C)C)c1 (centres undefined) | cell viability | 0.997 |
| CC(=O)O[C@@H]1CC2C(C)(C)[C@H](O)C=C[C@]2(C)C2CC[C@]3(C)C(=CC(=O)O[C@H]3c3ccoc3)[C@@]21C (stereo partly drawn) [3-alpha-HYDROXYDEOXYGEDININ] | cell viability | 1.08 |
| N[C@@H]1C[C@H]1c1ccccc1.N[C@H]1C[C@@H]1c1ccccc1 | cell viability | 1.02 |
| CCC(C)C(=O)OC1CC2(C)C(c3ccoc3)OC(=O)CC23OC2(C)OC34C(OC(=O)C(C)C)C3(O)C(OC(=O)C5(C)OC5C)C5(C)CC3(O)C(C)(C5CC(=O)OC)C14O2 (centres undefined) | cell viability | 1.09 |
| CN1[C@H]2C[C@H](OC(=O)[C@H](CO)c3ccccc3)C[C@@H]1[C@@H](O)C2 | cell viability | 0.934 |
